- experimental.system: Large T antigen (Simian virus 40, UniProt P03070);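 further: Confirmatory-stage PubChem screen for compounds that inhibit SV40 T antigen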
- Sequence (P03070 whole entry): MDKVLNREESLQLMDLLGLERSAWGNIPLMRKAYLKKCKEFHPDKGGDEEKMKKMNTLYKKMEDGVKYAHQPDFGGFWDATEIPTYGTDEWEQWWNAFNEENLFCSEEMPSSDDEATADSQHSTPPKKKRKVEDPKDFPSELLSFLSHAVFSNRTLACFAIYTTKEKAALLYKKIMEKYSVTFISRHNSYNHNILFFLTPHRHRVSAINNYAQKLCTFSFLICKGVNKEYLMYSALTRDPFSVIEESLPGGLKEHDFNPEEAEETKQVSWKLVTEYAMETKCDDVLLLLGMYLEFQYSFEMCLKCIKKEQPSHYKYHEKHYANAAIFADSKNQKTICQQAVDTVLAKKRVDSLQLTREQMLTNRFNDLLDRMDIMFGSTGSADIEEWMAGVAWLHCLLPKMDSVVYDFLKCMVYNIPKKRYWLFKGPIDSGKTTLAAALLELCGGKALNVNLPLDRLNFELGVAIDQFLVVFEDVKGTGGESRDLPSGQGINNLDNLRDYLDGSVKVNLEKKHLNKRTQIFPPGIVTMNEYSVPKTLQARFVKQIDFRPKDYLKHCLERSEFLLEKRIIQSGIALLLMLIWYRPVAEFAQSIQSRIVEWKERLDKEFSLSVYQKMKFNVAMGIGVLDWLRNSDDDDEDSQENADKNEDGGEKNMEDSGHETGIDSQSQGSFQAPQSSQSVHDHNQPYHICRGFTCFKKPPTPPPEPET
- Type: functional, Betapolyomavirus macacae
Activity calls are given as the source filed them.
IC50: recorded values

Entry CCOc1cc(C(c2c(C)n[nH]c2O)c2c(C)n[nH]c2O)ccc1OC(=O)c1cccc([N+](=O)[O-])c1 : IC50 on Large T antigen (Simian virus 40, UniProt P03070) = > 100 µM (active)

Entry CCOc1cc(/C=C2/C(=N)N3N=C(c4ccccc4)SC3=NC2=O)ccc1O : IC50 on Large T antigen (Simian virus 40, UniProt P03070) = 10.2 µM (active)

Entry CC(=O)Nc1ccc(S(=O)(=O)Nc2nc3ccccc3nc2Nc2ccc(N)cc2)cc1 : IC50 on Large T antigen (Simian virus 40, UniProt P03070) = 18.5 µM (active)

Entry CCn1c(SCC(=O)N/N=C/c2ccc(O)c(OC)c2)nc2ccccc21 : IC50 on Large T antigen (Simian virus 40, UniProt P03070) = 20.4 µM (active)

Entry O=C(NC(=S)N1CCN(c2ccc(O)cc2)CC1)c1cccs1 : IC50 on Large T antigen (Simian virus 40, UniProt P03070) = 5.39 µM (active)

Entry Nc1ccc(NC(=O)NC2CCCCC2)cc1 : IC50 on Large T antigen (Simian virus 40, UniProt P03070) = 10.5 µM (active)

Entry O=C(O)c1cc(-c2ccco2)nc2ccc(Br)cc12 : IC50 on Large T antigen (Simian virus 40, UniProt P03070) = 78.6 µM (active)

Entry N#C/C(=C\c1ccc(O)c(O)c1)C(=O)NCCc1ccccc1 : IC50 on Large T antigen (Simian virus 40, UniProt P03070) = 7.1 µM (active)

###

- experimental.system: Protein RecA (Mycobacterium tuberculosis, UniProt P9WHJ3)
- Sequence (P9WHJ3 whole entry): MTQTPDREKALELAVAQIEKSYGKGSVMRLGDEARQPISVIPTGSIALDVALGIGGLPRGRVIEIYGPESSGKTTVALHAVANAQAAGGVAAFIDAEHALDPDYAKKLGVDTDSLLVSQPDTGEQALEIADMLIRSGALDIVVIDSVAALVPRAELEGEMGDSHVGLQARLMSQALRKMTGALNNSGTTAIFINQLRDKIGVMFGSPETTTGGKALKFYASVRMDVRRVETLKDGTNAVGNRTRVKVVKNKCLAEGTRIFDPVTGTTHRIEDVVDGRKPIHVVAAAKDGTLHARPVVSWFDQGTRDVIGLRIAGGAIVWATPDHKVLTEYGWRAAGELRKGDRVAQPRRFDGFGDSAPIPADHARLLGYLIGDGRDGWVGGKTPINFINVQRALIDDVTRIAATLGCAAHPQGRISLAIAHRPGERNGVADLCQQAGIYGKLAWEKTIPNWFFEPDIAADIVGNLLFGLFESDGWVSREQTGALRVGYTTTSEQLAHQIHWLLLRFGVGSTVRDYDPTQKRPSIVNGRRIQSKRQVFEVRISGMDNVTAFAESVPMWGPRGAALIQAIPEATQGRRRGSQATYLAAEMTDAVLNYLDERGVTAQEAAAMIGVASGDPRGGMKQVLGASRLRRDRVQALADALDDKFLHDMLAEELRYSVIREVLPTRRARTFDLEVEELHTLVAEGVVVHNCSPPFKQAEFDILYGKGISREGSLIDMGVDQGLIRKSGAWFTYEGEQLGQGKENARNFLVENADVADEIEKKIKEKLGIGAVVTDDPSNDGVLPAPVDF
- method.notes: Fluorescence Cell-Free Homogeneous Dose Retest to Identify Inhibitors of RecA-Intein Splicing Activity. [Related pubchem assays (depositor defined):AID2097, AID2223, AID489010, AID492950]
- Type: functional
The source made the active and inactive calls.
Your response should consist of one outcome taken from active, inactive

Look over these answered cases.
C/C(CC(=O)Nc1ccccn1)=N\NC(=O)c1ccc(C)cc1 ... active
COC(=O)CCCCCN1C(=O)/C(=C\c2ccncc2)SC1=S ... active
O=C(CCl)Oc1ccc2occ(C(=O)c3cccs3)c2c1 ... active
Cc1ccc(-c2nc(CN3CCCC(C(=O)N4CCOCC4)C3)c(C)o2)cc1 (stereo not given) ... inactive
N#Cc1ncc(-c2ccc3c(c2)OCCOCCOCCOCCO3)nc1C#N ... active
O=C(Nc1ccc(Cl)cc1)/C(=C/c1cccc(O)c1)c1nc2ccccc2s1 ... active
Nc1ccccc1S(=O)(=O)NC1=NCCCCC1 ... inactive
Cc1n[nH]c(O)c1C(c1cc(Br)ccc1O)c1c(C)n[nH]c1O ... active
O=C(CSc1ncnc2c1nnn2Cc1ccccc1F)NCC1CCCO1 (stereo not given) ... active

# next compound below
For CCCc1ccc(/C=C2\C(=O)c3ccccc3C(O)=C2C(=O)OCC)cc1 , what call appears in the results of this test?
active

###

- experimental.system: Leucine aminopeptidase (Plasmodium falciparum 3D7, UniProt Q8IL11)
- Sequence (Q8IL11 whole entry): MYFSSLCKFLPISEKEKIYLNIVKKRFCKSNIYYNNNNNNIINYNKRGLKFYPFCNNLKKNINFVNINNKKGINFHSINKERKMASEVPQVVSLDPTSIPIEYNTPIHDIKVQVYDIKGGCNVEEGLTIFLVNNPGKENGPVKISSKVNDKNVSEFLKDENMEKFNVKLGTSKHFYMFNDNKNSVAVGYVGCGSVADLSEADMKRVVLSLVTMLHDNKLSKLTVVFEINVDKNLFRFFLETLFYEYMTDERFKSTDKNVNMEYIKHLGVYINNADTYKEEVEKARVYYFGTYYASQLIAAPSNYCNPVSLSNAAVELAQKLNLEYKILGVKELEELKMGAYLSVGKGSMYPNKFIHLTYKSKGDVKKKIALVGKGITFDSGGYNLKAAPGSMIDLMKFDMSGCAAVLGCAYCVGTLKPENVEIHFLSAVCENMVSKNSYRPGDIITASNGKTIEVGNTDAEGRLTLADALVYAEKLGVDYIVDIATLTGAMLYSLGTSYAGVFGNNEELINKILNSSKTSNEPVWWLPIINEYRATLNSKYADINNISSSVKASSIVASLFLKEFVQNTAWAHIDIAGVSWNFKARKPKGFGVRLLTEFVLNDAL
- method.notes: P. falciparum M17LAP inhibitors, primary screen, biochemical, fluorogenic H-Leu-NHMec substrate, 1536-well (AID 1619)
- Format: functional
Calls of active or inactive are those of the source.
IC50: recorded values

O=C(O)CN1C(=O)/C(=C\c2cn(CC(=O)N3CCOCC3)c3ccccc23)SC1=S ... 13.1 µM (active)

Now, please, on to the next molecule.
Entry Cc1noc(NS(=O)(=O)c2ccc(NC(=O)CSc3n[nH]c4c5ccccc5nc-4n3)cc2)c1C : IC50 on Leucine aminopeptidase (Plasmodium falciparum 3D7, UniProt Q8IL11) = 2.57 µM (active)

###

- experimental.system: Peroxisome proliferator-activated receptor gamma/Nuclear receptor coactivator 1 (Homo sapiens)
- Sequence (P37231 whole entry): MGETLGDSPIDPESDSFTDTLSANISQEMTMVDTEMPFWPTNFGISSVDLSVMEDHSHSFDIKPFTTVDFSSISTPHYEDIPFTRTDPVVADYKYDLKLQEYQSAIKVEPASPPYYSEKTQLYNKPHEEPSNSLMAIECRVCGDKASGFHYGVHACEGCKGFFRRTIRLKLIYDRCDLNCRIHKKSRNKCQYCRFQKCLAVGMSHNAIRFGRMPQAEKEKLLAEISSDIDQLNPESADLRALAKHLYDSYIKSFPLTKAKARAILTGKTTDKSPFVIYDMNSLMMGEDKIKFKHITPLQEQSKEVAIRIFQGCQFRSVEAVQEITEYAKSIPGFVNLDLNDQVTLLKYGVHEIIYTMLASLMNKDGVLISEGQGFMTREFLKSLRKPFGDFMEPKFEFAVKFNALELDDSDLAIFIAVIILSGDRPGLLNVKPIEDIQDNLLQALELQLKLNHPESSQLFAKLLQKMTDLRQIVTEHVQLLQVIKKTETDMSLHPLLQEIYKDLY
- Sequence (Q15788 whole entry, further chain): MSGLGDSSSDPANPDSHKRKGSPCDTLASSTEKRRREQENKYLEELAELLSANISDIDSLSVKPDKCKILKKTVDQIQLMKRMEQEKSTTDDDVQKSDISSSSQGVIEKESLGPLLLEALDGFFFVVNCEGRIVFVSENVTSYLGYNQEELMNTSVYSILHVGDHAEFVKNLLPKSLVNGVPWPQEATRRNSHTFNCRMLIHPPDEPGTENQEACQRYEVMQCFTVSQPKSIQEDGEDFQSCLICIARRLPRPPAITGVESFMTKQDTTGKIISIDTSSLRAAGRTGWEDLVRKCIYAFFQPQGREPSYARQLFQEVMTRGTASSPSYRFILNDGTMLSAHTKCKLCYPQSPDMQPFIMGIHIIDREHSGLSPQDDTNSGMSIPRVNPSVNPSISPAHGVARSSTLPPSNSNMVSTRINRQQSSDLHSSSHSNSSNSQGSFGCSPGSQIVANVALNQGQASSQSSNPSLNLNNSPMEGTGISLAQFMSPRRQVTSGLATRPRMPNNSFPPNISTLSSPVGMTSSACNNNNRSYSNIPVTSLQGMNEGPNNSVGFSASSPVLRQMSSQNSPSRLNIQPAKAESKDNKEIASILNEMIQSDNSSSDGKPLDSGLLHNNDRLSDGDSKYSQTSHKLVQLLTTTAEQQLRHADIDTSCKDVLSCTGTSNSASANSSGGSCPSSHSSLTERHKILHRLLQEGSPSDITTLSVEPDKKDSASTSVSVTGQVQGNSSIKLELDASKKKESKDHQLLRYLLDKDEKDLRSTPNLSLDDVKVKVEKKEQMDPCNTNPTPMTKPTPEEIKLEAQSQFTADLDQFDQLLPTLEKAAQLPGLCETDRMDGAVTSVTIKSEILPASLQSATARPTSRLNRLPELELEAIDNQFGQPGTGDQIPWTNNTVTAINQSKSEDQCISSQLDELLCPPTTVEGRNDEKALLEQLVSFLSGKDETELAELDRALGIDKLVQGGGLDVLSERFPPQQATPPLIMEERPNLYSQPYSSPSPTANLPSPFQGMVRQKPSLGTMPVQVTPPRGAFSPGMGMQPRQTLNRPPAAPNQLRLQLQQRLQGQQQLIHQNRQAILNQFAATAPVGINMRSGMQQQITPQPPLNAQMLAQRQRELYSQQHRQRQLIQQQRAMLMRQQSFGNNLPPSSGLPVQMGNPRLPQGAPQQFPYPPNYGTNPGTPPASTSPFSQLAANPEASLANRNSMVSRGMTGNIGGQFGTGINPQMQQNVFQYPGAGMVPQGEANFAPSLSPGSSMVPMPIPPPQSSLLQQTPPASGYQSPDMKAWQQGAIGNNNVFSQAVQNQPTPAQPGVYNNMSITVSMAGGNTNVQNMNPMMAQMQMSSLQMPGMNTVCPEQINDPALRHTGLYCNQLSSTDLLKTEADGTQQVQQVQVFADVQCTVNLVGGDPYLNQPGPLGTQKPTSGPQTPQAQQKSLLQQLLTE
- method.notes: TR-FRET dose response biochemical High Throughput Screening assay for agonists of the steroid receptor coactivator 1 (SRC-1) recruitment by the peroxisome proliferator-activated receptor gamma (PPAR gamma): non-selective agonists. [Related pubchem assays (depositor defined):AID1300, AID1808, AID504735, AID631]
- Format: protein assay
Calls of active or inactive are those of the source.
EC50: recorded values

// worked examples, EC50 included
C#CCn1/c(=N/C(=O)c2ccc(Br)s2)sc2cccc(OC)c21 ... 10.3 µM (inactive)
O=C(CSc1ncnc2c1oc1ccccc12)N1CCCc2ccccc21 ... > 79.4 µM (inactive)
CCOc1ccc2c(c1)nc(SCC(=O)c1ccc(Br)s1)n2C ... > 79.4 µM (inactive)

Now, please, on to the next molecule.
So, COc1ccc(C(=O)Nc2nc3ccc4nc(C)sc4c3s2)cc1 ? Its EC50 was 45.2 µM (inactive)

###

IC50: recorded values
- experimental.system: Induced myeloid leukemia cell differentiation protein Mcl-1 (Homo sapiens, UniProt Q07820)
- Sequence (Q07820 whole entry): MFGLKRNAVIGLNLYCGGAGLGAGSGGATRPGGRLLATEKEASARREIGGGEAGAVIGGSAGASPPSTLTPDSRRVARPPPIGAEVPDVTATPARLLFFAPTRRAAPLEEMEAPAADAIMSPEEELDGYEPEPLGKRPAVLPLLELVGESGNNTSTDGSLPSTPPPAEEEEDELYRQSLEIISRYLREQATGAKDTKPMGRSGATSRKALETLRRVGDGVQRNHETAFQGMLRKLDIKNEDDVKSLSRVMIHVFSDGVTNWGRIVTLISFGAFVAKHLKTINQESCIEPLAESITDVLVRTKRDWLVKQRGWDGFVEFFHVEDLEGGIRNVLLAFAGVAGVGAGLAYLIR
- Type: functional
The source made the active and inactive calls.

// worked examples, IC50 included
CCOc1cc(/C=C2/C(=N)N3N=C(c4ccccc4)SC3=NC2=O)ccc1O ... 3.61 µM (active)
CCCc1ccc(/C=C2\C(=O)c3ccccc3C(O)=C2C(=O)OCC)cc1 ... 2.32 µM (not active)

Now, please, on to the next molecule.
So, COc1ccccc1Nc1nc(-c2sc(NC(=O)c3ccc([N+](=O)[O-])cc3)nc2C)cs1 ? Its IC50 was 0.449 µM (active)

###

- experimental.system: Sentrin-specific protease 8 (Homo sapiens);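 further: kinetic enzyme assay of SENP8 cleaving a Nedd8 protein substrate, dose-response confirmation of screening hits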
- Sequence (Q96LD8 whole entry): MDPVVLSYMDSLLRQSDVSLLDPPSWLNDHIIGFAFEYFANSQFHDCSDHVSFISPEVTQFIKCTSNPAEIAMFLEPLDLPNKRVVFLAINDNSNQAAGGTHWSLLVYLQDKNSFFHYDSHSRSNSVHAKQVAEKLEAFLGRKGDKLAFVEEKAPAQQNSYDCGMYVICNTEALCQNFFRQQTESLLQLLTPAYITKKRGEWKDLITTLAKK
- Format: functional
The source made the active and inactive calls.
measurement.kind: IC50

// worked examples, IC50 included
COC/C=C/C1=CC2=CC(=O)C(C)(OC(=O)c3cnc4ccccc4n3)C(=O)C2=CN1CCCCO (stereo not given) ... 6.81 µM (active)
O=[N+]([O-])c1ccc(C=NN2CCOCC2)s1 ... 49 µM (active)
COC(=O)CCCC1=CC2=CC(=O)C(C)(OC(=O)c3cccs3)C(=O)C2=CN1CC(C)C (stereo not given) ... 7.62 µM (active)
CC1(OC(=O)CCc2ccccc2)C(=O)C=C2C=C3CCCN3C=C2C1=O (stereo not given) ... 12.1 µM (active)

Now, please, on to the next compound.
So, Cc1n[nH]c(O)c1C(c1cc(Br)ccc1O)c1c(C)n[nH]c1O ? Its IC50 was 34 µM (active)
